Measured Asu per 10' cycle [%] of individual entries
Assay details: Prolonged piperidine treatment of VKDGYI peptide resin (aspartimide formation, Asp-Gly motif)
Recorded conditions: VKDGYI; 20 % piperidine in dimethylformamide
Write down the numeric answer in % and omit the unit.

Sample answers from the record:
Query block: # Asu per 10' cycle [%] lookup, item CCCC(CCC)(CCC)OC(=O)C[C@H](NC(=O)OCC1c2ccccc2-c2ccccc21)C(=O)O
Result block: 0.2

Query block: # Asu per 10' cycle [%] lookup, item CC(C)(C)OC(=O)C[C@H](NC(=O)OCC1c2ccccc2-c2ccccc21)C(=O)O [tBu, Fmoc-Asp(OtBu)-OH, reference compound]
Result block: 2.3

Query block: # Asu per 10' cycle [%] lookup, item CCC(C)(CC)OC(=O)C[C@H](NC(=O)OCC1c2ccccc2-c2ccccc21)C(=O)O [Mpe, Fmoc-Asp(OMpe)-OH, reference compound]
Result block: 0.8

Could you now consider this next compound?
Query block: # Asu per 10' cycle [%] lookup, item CCC(CC)(CC)OC(=O)C[C@H](NC(=O)OCC1c2ccccc2-c2ccccc21)C(=O)O
Result block: 0.4

* * *

Assay details: Prolonged piperidine treatment of VKDRYI peptide resin (aspartimide formation, Asp-Arg motif)
Assay type: physicochemical
Recorded conditions: VKDRYI, 110 Fmoc removal cycles
Measured D/L-Asu [%] of individual entries
Write down the numeric answer in % and omit the unit.

Sample answers from the record:
Query block: # D/L-Asu [%] lookup, item CCC(C)(CC)OC(=O)C[C@H](NC(=O)OCC1c2ccccc2-c2ccccc21)C(=O)O [Mpe, Fmoc-Asp(OMpe)-OH, reference compound]
Result block: 6.9

Query block: # D/L-Asu [%] lookup, item CC(C)(C)OC(=O)C[C@H](NC(=O)OCC1c2ccccc2-c2ccccc21)C(=O)O [tBu, Fmoc-Asp(OtBu)-OH, reference compound]
Result block: 16.9

Query block: # D/L-Asu [%] lookup, item CCCCC(CCCC)(CCCC)OC(=O)C[C@H](NC(=O)OCC1c2ccccc2-c2ccccc21)C(=O)O
Result block: 2.6

Query block: # D/L-Asu [%] lookup, item CCC(CC)(CC)OC(=O)C[C@H](NC(=O)OCC1c2ccccc2-c2ccccc21)C(=O)O
Result block: 3.90

Could you now consider this next molecule?
Query block: # D/L-Asu [%] lookup, item CCCC(CCC)(CCC)OC(=O)C[C@H](NC(=O)OCC1c2ccccc2-c2ccccc21)C(=O)O
Result block: 3.2

* * *

Assay details: Prolonged piperidine treatment of VKDGYI peptide resin (aspartimide formation, Asp-Gly motif)
Recorded conditions: VKDGYI; 20 % piperidine in dimethylformamide, 18 hours; sum of piperidides
Measured piperidides [%] of individual entries
Write down the numeric answer in % and omit the unit.

Query block: # piperidides [%] lookup, item CCCC(CCC)(CCC)OC(=O)C[C@H](NC(=O)OCC1c2ccccc2-c2ccccc21)C(=O)O
Result block: 16.5

Query block: # piperidides [%] lookup, item CCC(C)(CC)OC(=O)C[C@H](NC(=O)OCC1c2ccccc2-c2ccccc21)C(=O)O [Mpe, Fmoc-Asp(OMpe)-OH, reference compound]
Result block: 51.0

Query block: # piperidides [%] lookup, item CC(C)(C)OC(=O)C[C@H](NC(=O)OCC1c2ccccc2-c2ccccc21)C(=O)O [tBu, Fmoc-Asp(OtBu)-OH, reference compound]
Result block: 85.6

Query block: # piperidides [%] lookup, item CCC(CC)(CC)OC(=O)C[C@H](NC(=O)OCC1c2ccccc2-c2ccccc21)C(=O)O
Result block: 31.5

* * *

Assay details: Prolonged DBU treatment of VKDNYI peptide resin (aspartimide formation)
Format: physicochemical
Recorded conditions: VKDNYI; DBU
Asu per 2' cycle of 0.5 or higher: yes. Under 0.5: no.

Query block: Given CCCCC(CCCC)(CCCC)OC(=O)C[C@H](NC(=O)OCC1c2ccccc2-c2ccccc21)C(=O)O [Bno] , state whether its Asu per 2' cycle is at least 0.5.
Result block: no

Query block: Given CC(C)(C)OC(=O)C[C@H](NC(=O)OCC1c2ccccc2-c2ccccc21)C(=O)O [tBu, Fmoc-Asp(OtBu)-OH, reference compound] , state whether its Asu per 2' cycle is at least 0.5.
Result block: yes

Query block: Given CCC(C)(CC)OC(=O)C[C@H](NC(=O)OCC1c2ccccc2-c2ccccc21)C(=O)O [Mpe, Fmoc-Asp(OMpe)-OH, reference compound] , state whether its Asu per 2' cycle is at least 0.5.
Result block: yes

We next turn to a different compound, shown below.
Query block: Given CCCC(CCC)(CCC)OC(=O)C[C@H](NC(=O)OCC1c2ccccc2-c2ccccc21)C(=O)O [Php] , state whether its Asu per 2' cycle is at least 0.5.
Result block: no

* * *

Measured Asu [%] of individual entries
Assay details: Prolonged piperidine treatment of VKDGYI peptide resin (aspartimide formation, Asp-Gly motif)
Recorded conditions: VKDGYI; Oxyma Pure -
Write down the numeric answer in % and omit the unit.

Sample answers from the record:
Query block: # Asu [%] lookup, item CCC(CC)(CC)OC(=O)C[C@H](NC(=O)OCC1c2ccccc2-c2ccccc21)C(=O)O
Result block: 4.1

Query block: # Asu [%] lookup, item CC(C)(C)OC(=O)C[C@H](NC(=O)OCC1c2ccccc2-c2ccccc21)C(=O)O [tBu, Fmoc-Asp(OtBu)-OH, reference compound]
Result block: 6.4

Query block: # Asu [%] lookup, item CCC(C)(CC)OC(=O)C[C@H](NC(=O)OCC1c2ccccc2-c2ccccc21)C(=O)O [Mpe, Fmoc-Asp(OMpe)-OH, reference compound]
Result block: 6.7

Could you now consider this next compound?
Query block: # Asu [%] lookup, item CCCC(CCC)(CCC)OC(=O)C[C@H](NC(=O)OCC1c2ccccc2-c2ccccc21)C(=O)O
Result block: 2.9

The measurements presented in this section are drawn from patent EP2886531B1.
